Reported pIC50 by item:
assayedSystem: arachidonate 5-lipoxygenase (Cavia porcellus)
test: Inhibitory activity against 5-lipoxygenase
Please keep in mind that pIC50 is minus log10 of the molar concentration; only the number is needed.

Just so you know, measured pIC50 for CCCCC/C=C\C\C=C/C=C/C=C/C1CC1CCCC(=O)O (stereo not drawn) came out at 5.52

Just so you know, measured pIC50 for CCCCC/C=C\C/C=C\C/C=C\C=C\[C@@H](O)CCCC(=O)O came out at 5.70

Just so you know, measured pIC50 for CCCCC/C=C\C/C=C\C/C=C\C=C\C(CO)CCCC(=O)O (stereo not drawn) came out at 4.00

Just so you know, measured pIC50 for CCCCC/C=C\C\C=C/C=C/C=C/C1CC1CCCCC(=O)O (stereo not drawn) came out at 4.70

Just so you know, measured pIC50 for CCCCC/C=C\C/C=C\CC=CC=CC(=O)CCCC(=O)OC came out at 4.70

Just so you know, measured pIC50 for CCCCC/C=C\C\C=C/C=C/C=C/C1SC1CCCC(=O)OC (stereo not drawn) came out at 4.19

Just so you know, measured pIC50 for CCCCCCCCCCCCCCC1CC1CCCC(=O)O (stereo not drawn) came out at 4.00

Just so you know, measured pIC50 for CCCCC/C=C\C\C=C/C=C/C=C/[C@@H]1O[C@H]1CCCC(=O)O came out at 5.70
